All figures here come from ChEMBL document CHEMBL1201862.

test system: IGROV-1; assay: NCI tumour cell line growth inhibition, 48 h
Structures can show the parent of a compound that is named as a salt. Active and inactive are the calls of the source. Rule as the data show it: active = GI50 up to about 1.1 µM and inactive = higher.
measurementName: GI50

Example results:
CC1(N2CCOCC2)CC2C(=[N+]1[O-])CCC/C2=N/O (configuration not stated)	> 100 µM (inactive)
CCOC(=O)C(NC(=O)CC)(Nc1ccc(S(=O)(=O)Nc2ccc(OC)nn2)cc1)C(F)(F)F (configuration not stated)	> 100 µM (inactive)
CC(=O)OC(Cc1ccc2ccccc2n1)(C(F)(F)F)C(F)(F)F	1.31 µM (inactive)

Input: State its GI50 for this molecule: "C=C(C)[C@@]1(O)O[C@H]2C[C@@]3(C)OC(=CC3=O)/C(C)=C\[C@@H]3OC(=O)[C@@]1(C)[C@H]32"
Output: 15 µM (inactive)

Input: Provide GI50 value for the following molecule: "Cn1c(SCc2ccc(F)cc2)nnc1C12CC3CC(CC(C3)C1)C2"
Output: 12.7 µM (inactive)

Input: Fill in GI50 for record "CN1CCN(CCCNN)CC1"
Output: > 100 µM (inactive)

Input: Name the recorded GI50 of the item Nc1ncc2c(n1)-c1ccccc1OC2NC1CC1 (configuration not stated) in your answer.
Output: > 100 µM (inactive)

Input: Please supply the value of reported GI50 for the item NC(=O)c1cn(C2OC(CO)C(O)C2O)c2nc[n+]([O-])c(N)c12 (configuration not stated)
Output: 1.05 µM (active)

Input: Respond only with GI50 recorded for C/C=C1\C[C@@H]2C(OC)Nc3cc(O)c(OC)cc3C(=O)N2C1 (some centres not stated)
Output: < 0.01 µM (active)

Input: # return recorded GI50 for entry CC(C)C[C@H]1C(=O)N2CCC[C@H]2[C@]2(O)O[C@](NC(=O)[C@@H]3C=C4c5cccc6[nH]c(Br)c(c56)C[C@H]4N(C)C3)(C(C)C)C(=O)N12 [BROMOCRIPTINE MESYLATE]
Output: 67.5 µM (inactive)

Input: Supply GI50 value. Item: c1cc(C2O[C@H]3CCCN3[C@@H]2c2ccncc2)ccn1 (some centres not stated)
Output: > 100 µM (inactive)

Input: Could you please provide reported GI50 for "Nc1ccc2c(=O)cc(-c3ccc(Br)s3)[nH]c2n1" ? Thanks!
Output: 3.85 µM (inactive)

Input: Supply reported GI50 belonging to this molecule: COc1cc(S(=O)(=O)Nc2ccc(-c3csc(N4C(=O)C(C)SC4c4ccccc4O)n3)cc2)ccc1Cl (configuration not stated)
Output: 35.8 µM (inactive)

Input: Provide GI50 value for the following molecule: Cc1ccc(C(=O)N2c3ccccc3N(C)n3cccc3C2CC(=O)O)cc1 (configuration not stated)
Output: > 100 µM (inactive)

Input: Give the value of GI50 reported for the following: CC1OC(OC2C(O[C@H]3CC[C@@]4(C)[C@@H](CC[C@@H]5[C@@H]4CC[C@]4(C)[C@@H]6[C@H](C[C@@H]54)O[C@]4(CC[C@@H](C)CO4)[C@H]6C)C3)OC(CO)C(OC3OC(CO)C(O)C(OC4OCC(O)C(O)C4O)C3OC3OCC(O)C(O)C3O)C2O)C(O)C(O)C1O (some centres not stated)
Output: 1.01 µM (active)

Input: Note down GI50 recorded for Cc1c(C)c2ccc(OC(C)C(=O)O)cc2oc1=O (configuration not stated)
Output: > 100 µM (inactive)

Input: Tell us which GI50 value is on record for "Cc1cc(NS(=O)(=O)c2ccc(Nc3c4ccccc4nc4c(C(=O)Nc5ccc(S(=O)(=O)N=C(N)N)cc5)cccc34)cc2)no1"
Output: > 100 µM (inactive)

---

test system: ACHN; assay: NCI tumour cell line growth inhibition, 48 h
Active and inactive are the calls of the source. No stated cut-off is given here; in the data, active = GI50 up to about 1.1 µM and inactive = higher.
measurementName: GI50

Worked set:
O=[N+]([O-])c1ccc2c(/N=N/c3ccc4ccccc4c3O)c(O)cc(S(=O)(=O)O)c2c1	7.13 µM (inactive)
COc1cc([C@@H]2c3cc4c(c(O)c3C[C@H]3COC(=O)[C@@H]32)OCO4)cc(OC)c1O	0.00631 µM (active)
Cn1c(=O)c2c(nc(NCCCCl)n2CC(=O)NCCCCl)n(C)c1=O	> 100 µM (inactive)
N#CC(C(=O)CCCC(=O)Nc1ccccc1[N+](=O)[O-])c1c(Cl)cccc1Cl (stereo not given)	> 100 µM (inactive)

Continue with the next compound.
Input: Fill in: GI50 on ACHN, entry "Cc1ccc(N2C(=O)C=C(C3=C(O)C(=O)N(c4ccc(C)cc4)C3=O)C2=O)cc1"
Output: > 100 µM (inactive)

---

tested on: CCRF-CEM; test: NCI tumour cell line growth inhibition, 48 h
The source made the active and inactive calls. Cut-off read from the data, not from the text of the source: active = GI50 up to about 1.1 µM and inactive = higher.
measurementName: GI50

Worked set:
COc1cc(/C=C(\C#N)C(N)=C(C#N)C#N)cc(O)c1O	22.7 µM (inactive)
CC1=NCCc2cc3[nH]c4ccccc4c3cc21	12.5 µM (inactive)
COc1ccc(/N=N/C(C(=O)c2ccccc2)C(=O)c2ccccc2)cc1	8 µM (inactive)
CCOC(=O)N(c1ccccc1)N(CC)C(=O)/C(C)=N/Nc1ccc([N+](=O)[O-])cc1	17.2 µM (inactive)
CCCCCCCCCCOC1C(C(O)CNCCCN(C)C)OC2OC3(CCCCC3)OC21 (stereo unspecified)	1.71 µM (inactive)

# input for lookup
Input: Look up and state reported GI50 for CC1(N2CCOCC2)CC2C(=[N+]1[O-])CCC/C2=N/O (stereo unspecified)
Output: > 100 µM (inactive)

---

// GI50 collected for HCT-15

Observe how each entry below is paired with its result.
NCCSCCc1ccccc1	> 100 µM
Clc1ccc(-c2noc(CN3CCCCC3)n2)cc1	> 100 µM
Oc1ccc2c(c1)OCC(O)(c1ccccc1O)C2 (configuration not stated)	> 100 µM
O=C(Nc1ccc(Cl)cc1)C(=O)C1=C(O)c2ccccc2OC1	> 100 µM
CCCCCCCCCCCCCCCC(=O)N[C@H]1CCc2cc(OC)c(OC)c(OC)c2-c2ccc(SC)c(=O)cc21	1.15 µM
CC1OC(OC2C(O[C@H]3CC[C@@]4(C)C(=CC[C@H]5[C@@H]6C[C@@H]7O[C@]8(CC[C@H](C)CN8)[C@@H](C)[C@@H]7[C@@]6(C)CC[C@@H]54)C3)OC(CO)C(O)C2OC2OC(CO)C(O)C(O)C2O)C(O)C(O)C1O (some centres not stated)	16.7 µM
Cc1ccc2c(c1)C(=S)N1CSCC1c1nncn1-2 (configuration not stated)	> 100 µM
CCOC(=O)c1c(N2CCCC2)[nH]c(=O)c(C(c2ccc(N(C)C)cc2)c2c(O)c(C(=O)OCC)c(N3CCCC3)[nH]c2=O)c1O	> 100 µM

Input: Retrieve GI50 on HCT-15; query COC1CC(O[C@H]2CC[C@@]3(C)C(=CCC4(O)C3CCC35C(=O)OC6(C)O[C@@]43CCC65)C2)OC(C)C1O (some centres not stated)
Output: > 100 µM

Input: Give GI50 for this entry on HCT-15: COC(=O)C1(C)CCCC2(C)C3CCC4CC3(C=C4CO)CCC12 (configuration not stated)
Output: 17.4 µM

Input: State measured GI50 of the molecule CC(=O)N1C(Nc2ccccc2)CCN1c1ccccc1 (configuration not stated) with HCT-15.
Output: 3.66 µM

Input: Output reported GI50 of the molecule CNC(=O)N(C1=NCC(C)S1)c1ccc(C)c(C)c1 (configuration not stated) on HCT-15.
Output: 2.77 µM

Input: Consider the molecule "Nc1nc(N)c2cc(S(=O)(=O)c3ccc4ccccc4c3)ccc2n1" tested on HCT-15; state its GI50.
Output: 3.93 µM

Input: Give HCT-15 GI50 for the following molecule: OCC1C(OCc2ccccc2)C(OCc2ccccc2)C(OCc2ccccc2)CN1Cc1ccccc1 (configuration not stated)
Output: 30.5 µM

Input: State, for HCT-15, measured GI50 of the molecule listed here: "CCOC(=O)C1(Br)S(=O)(=O)OCCOS1(=O)=O"
Output: > 100 µM

Input: // output GI50; input C[C@@H](C1CCC2C3C(=CC(=O)[C@@]21C)[C@H](C)[C@]1(CCC(=O)O1)C1OC31)[C@H]1C[C@]2(C)O[C@@](C)(O1)OC2(C)C (some centres not stated) ; system HCT-15
Output: > 100 µM

Input: # return GI50 of "C/C(=N/NS(=O)(=O)c1c(C)cc(C)cc1C)c1cccc[n+]1[O-]" (system: HCT-15)
Output: > 100 µM

Input: Quote HCT-15 GI50 for entry "CCOP(=O)(COCCn1ncc(=O)[nH]c1=O)OCC" .
Output: > 100 µM

Input: Please respond with reported GI50 (system HCT-15) for "CCOC(=O)[C@@]1(C)C=C2O[C@@H]3OC4(CCCCC4)O[C@@H]3C2=C2C(O)=CC=C(O)[C@]21C(=O)OC" .
Output: > 68.1 µM

Input: Give GI50 for this entry on HCT-15: "Oc1ccc(-c2cn3cc(C(F)(F)F)ccc3n2)cc1"
Output: 35.6 µM

Input: // fetch GI50 for "O=C1[C@H](O)[C@@H]2CCC[C@@]23CCCN13" ; system: HCT-15
Output: > 100 µM

Input: # return GI50 of Cn1c(=O)n2n(c1=O)C([S+]([O-])c1ccccc1)C2 (configuration not stated) (system: HCT-15)
Output: > 100 µM

Input: Write GI50 of COc1ccc(C2(O)C(S(=O)(=O)c3ccc(C)cc3)=Cc3ccc(OC)cc32)cc1 (configuration not stated) ; system used: HCT-15
Output: > 100 µM

Input: Give GI50; test system HCT-15; molecule "CCOC(=O)c1ccc(C(=O)/C(C(=O)OC(C)(C)C)=C2\CCCN2C)n1C"
Output: 95.1 µM

Input: Please report the measured GI50 for "O=C(O)CCNc1[nH]cnc2ncnc1-2" tested on HCT-15.
Output: > 100 µM

Input: Quote GI50 with test system HCT-15 for "Cc1nc2c(ccc3[nH]c4ccccc4c32)s1"
Output: 18.8 µM

Input: Determine reported GI50 for "CC1=C(C(=O)Nc2ccccc2)C(c2ccc(C3C(C(=O)Nc4ccccc4)=C(C)NC(C)=C3C(=O)Nc3ccccc3)cc2)C(C(=O)Nc2ccccc2)=C(C)N1" ; test system: HCT-15.
Output: 2.72 µM

Input: Look up and report measured GI50 (HCT-15) for the following molecule: "C/N=C(\S)N/N=C/C(C)=N/N/C(S)=N/C"
Output: > 100 µM
